- testedSystem: human ether-à-go-go-related gene (hERG) potassium channel (human, UniProt Q12809);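 further: peak tail current of the secondary pulse compared with the same well before compound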
- Sequence (Q12809 whole entry, looked up): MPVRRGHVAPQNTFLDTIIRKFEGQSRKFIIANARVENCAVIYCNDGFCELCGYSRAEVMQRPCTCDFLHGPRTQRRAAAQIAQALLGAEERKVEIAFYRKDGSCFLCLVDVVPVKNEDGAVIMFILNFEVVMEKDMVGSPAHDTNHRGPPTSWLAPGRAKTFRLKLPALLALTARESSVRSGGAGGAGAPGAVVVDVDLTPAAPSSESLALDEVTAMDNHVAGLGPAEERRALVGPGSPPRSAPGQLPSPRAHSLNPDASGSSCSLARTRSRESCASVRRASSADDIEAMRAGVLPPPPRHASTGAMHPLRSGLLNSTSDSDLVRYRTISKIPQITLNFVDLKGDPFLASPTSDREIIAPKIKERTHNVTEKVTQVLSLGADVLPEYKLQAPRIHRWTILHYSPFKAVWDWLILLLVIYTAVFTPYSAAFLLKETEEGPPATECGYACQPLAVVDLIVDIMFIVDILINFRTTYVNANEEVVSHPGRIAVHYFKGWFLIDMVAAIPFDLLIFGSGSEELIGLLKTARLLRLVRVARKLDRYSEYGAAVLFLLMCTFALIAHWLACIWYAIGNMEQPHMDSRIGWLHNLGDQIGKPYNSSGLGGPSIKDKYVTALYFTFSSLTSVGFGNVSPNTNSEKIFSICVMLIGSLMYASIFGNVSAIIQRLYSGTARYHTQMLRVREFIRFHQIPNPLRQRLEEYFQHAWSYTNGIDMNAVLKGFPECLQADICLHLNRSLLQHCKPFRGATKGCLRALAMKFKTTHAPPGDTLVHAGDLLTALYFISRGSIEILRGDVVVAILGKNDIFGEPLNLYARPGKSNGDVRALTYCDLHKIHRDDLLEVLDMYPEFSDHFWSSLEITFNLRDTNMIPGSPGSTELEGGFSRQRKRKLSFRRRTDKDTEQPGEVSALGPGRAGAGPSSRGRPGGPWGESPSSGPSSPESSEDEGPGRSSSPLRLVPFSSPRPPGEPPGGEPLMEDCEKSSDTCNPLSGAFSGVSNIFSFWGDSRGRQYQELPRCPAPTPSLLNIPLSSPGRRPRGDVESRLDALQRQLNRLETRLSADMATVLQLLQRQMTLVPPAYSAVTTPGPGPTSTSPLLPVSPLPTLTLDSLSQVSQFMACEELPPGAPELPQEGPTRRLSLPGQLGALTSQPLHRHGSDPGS
- runDescription: primary screen, population patch clamp on CHO cells stably expressing hERG; higher = less effect of the substance
Among all 310,000 compounds or so, about 14,000 (4.5%) showed an effect of 50% or more. Effects have a minus sign here. Many of the other results were omitted from the sample, so strong results are more common in it than they were.
Use 1.0 when the recorded hERG current change (%, negative = inhibition) at 10uM is no lower than -30%; use 0.0 when it is lower.

Given CCC(C)NC(=O)CSC1=Nc2ccccc2C2=NC(CCC(=O)NCc3ccco3)C(=O)N12 (stereo not drawn) , state whether its hERG current change (%, negative = inhibition) at 10uM is at least -30%.
1.0

Given Cc1ccc(Cn2c(SCCN3CCCCC3)nc3c2c(=O)n(C)c(=O)n3C)cc1 , state whether its hERG current change (%, negative = inhibition) at 10uM is at least -30%.
0.0

Given Cn1c(=O)c2c(nc(SCCN3CCOCC3)n2Cc2ccc(F)cc2)n(C)c1=O , state whether its hERG current change (%, negative = inhibition) at 10uM is at least -30%.
0.0

Given COc1ccc(-c2nn(-c3ccccc3)cc2CO)cc1 , state whether its hERG current change (%, negative = inhibition) at 10uM is at least -30%.
1.0

Given O=C(CC1N=C2c3ccccc3N=C(SCc3ccc(Cl)cc3)N2C1=O)NCc1ccco1 (stereo not drawn) , state whether its hERG current change (%, negative = inhibition) at 10uM is at least -30%.
0.0

Given COc1ccc(CCN(C)C2CCCN(S(=O)(=O)N(C)C)C2)cc1OC (stereo not drawn) , state whether its hERG current change (%, negative = inhibition) at 10uM is at least -30%.
1.0

Given COc1ccc(-n2cc(CNCCN3CCOC3=O)c(-c3ccccc3Cl)n2)cc1 , state whether its hERG current change (%, negative = inhibition) at 10uM is at least -30%.
1.0

Given Cc1c(Cl)cccc1NC(=S)NCc1ccccc1 , state whether its hERG current change (%, negative = inhibition) at 10uM is at least -30%.
1.0

Given C/C=C(\C)CN1CCCC(N(C)CCc2ccc(OC)c(OC)c2)C1 (stereo not drawn) , state whether its hERG current change (%, negative = inhibition) at 10uM is at least -30%.
1.0

Given COc1ccc(-n2cc(CNCCc3cscn3)c(-c3ccccc3Cl)n2)cc1 , state whether its hERG current change (%, negative = inhibition) at 10uM is at least -30%.
0.0

Given Cc1cccc(-n2cc(CNCCc3nc(C)cc(C)n3)c(-c3cccc(F)c3)n2)c1 , state whether its hERG current change (%, negative = inhibition) at 10uM is at least -30%.
0.0

Given O=C(CSc1nnc(-c2ccccn2)n1-c1ccccc1)Nc1ccc2c(c1)OCO2 , state whether its hERG current change (%, negative = inhibition) at 10uM is at least -30%.
1.0

Given O=C(CSC1=Nc2ccccc2C2=NC(CC(=O)NCc3ccco3)C(=O)N12)NCc1ccco1 (stereo not drawn) , state whether its hERG current change (%, negative = inhibition) at 10uM is at least -30%.
1.0

Given Cn1c(=O)c2c(nc(SCCN3CCCCC3)n2C)n(C)c1=O , state whether its hERG current change (%, negative = inhibition) at 10uM is at least -30%.
1.0

Given COc1ccc(C(=O)NC(C)c2nnc(SCC(=O)NC3=NCCS3)n2C)cc1 (stereo not drawn) , state whether its hERG current change (%, negative = inhibition) at 10uM is at least -30%.
1.0

Given COc1ccc(-n2cc(CNCCc3nc(C)cc(C)n3)c(-c3ccccc3Cl)n2)cc1 , state whether its hERG current change (%, negative = inhibition) at 10uM is at least -30%.
0.0

Given CCCCNC(=O)CC1N=C2c3ccccc3N=C(SCC(=O)Nc3cccc(C)c3)N2C1=O (stereo not drawn) , state whether its hERG current change (%, negative = inhibition) at 10uM is at least -30%.
0.0

Given Cn1c(=O)c2c(nc(SCCN3CCOCC3)n2Cc2ccccc2)n(C)c1=O , state whether its hERG current change (%, negative = inhibition) at 10uM is at least -30%.
0.0

Given CCN(CC)S(=O)(=O)c1cc(NC(=O)C2CCN(c3ncnc4sc(C)c(C)c34)CC2)ccc1Cl , state whether its hERG current change (%, negative = inhibition) at 10uM is at least -30%.
1.0

Given Cc1ccc(Cn2c(SCC(C)C)nc3c2c(=O)n(C)c(=O)n3C)cc1 , state whether its hERG current change (%, negative = inhibition) at 10uM is at least -30%.
1.0

Given COc1ccc(N2CCN(C(=O)CSc3nnc4n3C(C)(C)Cc3ccccc3-4)CC2)cc1 , state whether its hERG current change (%, negative = inhibition) at 10uM is at least -30%.
1.0

Given CC1CCN(C2(O)C(=O)Nc3ccc(Br)cc32)CC1 (stereo not drawn) , state whether its hERG current change (%, negative = inhibition) at 10uM is at least -30%.
1.0

Given COc1ccc2cc3cc(C(=O)N4CCN(c5ccccc5)CC4)oc3nc2c1 , state whether its hERG current change (%, negative = inhibition) at 10uM is at least -30%.
1.0

Given COc1ccc(CCN(C)C(=O)c2ccc(C)c(S(=O)(=O)N3CCCCC3)c2)cc1OC , state whether its hERG current change (%, negative = inhibition) at 10uM is at least -30%.
1.0

Given O=C(CCC1N=C2c3ccccc3N=C(SCC(=O)NCc3ccco3)N2C1=O)NCc1ccco1 (stereo not drawn) , state whether its hERG current change (%, negative = inhibition) at 10uM is at least -30%.
1.0

Given Cn1c(=O)c2c(nc(SCCN3CCOCC3)n2Cc2ccccc2Cl)n(C)c1=O , state whether its hERG current change (%, negative = inhibition) at 10uM is at least -30%.
0.0

Given CCc1nnc(NC(=O)CSc2nnc(C(C)NC(=O)c3ccccc3)n2C)s1 (stereo not drawn) , state whether its hERG current change (%, negative = inhibition) at 10uM is at least -30%.
1.0

Given CCCCNC(=O)CC1N=C2c3ccccc3N=C(SCC(=O)Nc3ccccc3C)N2C1=O (stereo not drawn) , state whether its hERG current change (%, negative = inhibition) at 10uM is at least -30%.
1.0

Given CCCCCCc1cc2cc(C(=O)NCc3ccccc3)c(=N)oc2cc1O , state whether its hERG current change (%, negative = inhibition) at 10uM is at least -30%.
1.0

Given Cc1cccc(-n2cc(CN3CCCN(C=O)CC3)c(-c3cccc(F)c3)n2)c1 , state whether its hERG current change (%, negative = inhibition) at 10uM is at least -30%.
1.0

Given Cn1c(=O)c2c(nc(SCCN3CCCCC3)n2Cc2ccccc2)n(C)c1=O , state whether its hERG current change (%, negative = inhibition) at 10uM is at least -30%.
0.0

Given Cn1c(=O)c2c(nc(SCCN3CCCCC3)n2Cc2ccc(Cl)cc2)n(C)c1=O , state whether its hERG current change (%, negative = inhibition) at 10uM is at least -30%.
0.0

Given Cn1c(CNC(=O)c2ccco2)nnc1SCC(=O)c1ccccc1 , state whether its hERG current change (%, negative = inhibition) at 10uM is at least -30%.
1.0
